Data origin: patent US20240208992A1

Target: human F508del-CFTR (Homo sapiens, UniProt P13569, DEL508-508)
Sequence (P13569 with tags, fused parts or gaps DEL508-508): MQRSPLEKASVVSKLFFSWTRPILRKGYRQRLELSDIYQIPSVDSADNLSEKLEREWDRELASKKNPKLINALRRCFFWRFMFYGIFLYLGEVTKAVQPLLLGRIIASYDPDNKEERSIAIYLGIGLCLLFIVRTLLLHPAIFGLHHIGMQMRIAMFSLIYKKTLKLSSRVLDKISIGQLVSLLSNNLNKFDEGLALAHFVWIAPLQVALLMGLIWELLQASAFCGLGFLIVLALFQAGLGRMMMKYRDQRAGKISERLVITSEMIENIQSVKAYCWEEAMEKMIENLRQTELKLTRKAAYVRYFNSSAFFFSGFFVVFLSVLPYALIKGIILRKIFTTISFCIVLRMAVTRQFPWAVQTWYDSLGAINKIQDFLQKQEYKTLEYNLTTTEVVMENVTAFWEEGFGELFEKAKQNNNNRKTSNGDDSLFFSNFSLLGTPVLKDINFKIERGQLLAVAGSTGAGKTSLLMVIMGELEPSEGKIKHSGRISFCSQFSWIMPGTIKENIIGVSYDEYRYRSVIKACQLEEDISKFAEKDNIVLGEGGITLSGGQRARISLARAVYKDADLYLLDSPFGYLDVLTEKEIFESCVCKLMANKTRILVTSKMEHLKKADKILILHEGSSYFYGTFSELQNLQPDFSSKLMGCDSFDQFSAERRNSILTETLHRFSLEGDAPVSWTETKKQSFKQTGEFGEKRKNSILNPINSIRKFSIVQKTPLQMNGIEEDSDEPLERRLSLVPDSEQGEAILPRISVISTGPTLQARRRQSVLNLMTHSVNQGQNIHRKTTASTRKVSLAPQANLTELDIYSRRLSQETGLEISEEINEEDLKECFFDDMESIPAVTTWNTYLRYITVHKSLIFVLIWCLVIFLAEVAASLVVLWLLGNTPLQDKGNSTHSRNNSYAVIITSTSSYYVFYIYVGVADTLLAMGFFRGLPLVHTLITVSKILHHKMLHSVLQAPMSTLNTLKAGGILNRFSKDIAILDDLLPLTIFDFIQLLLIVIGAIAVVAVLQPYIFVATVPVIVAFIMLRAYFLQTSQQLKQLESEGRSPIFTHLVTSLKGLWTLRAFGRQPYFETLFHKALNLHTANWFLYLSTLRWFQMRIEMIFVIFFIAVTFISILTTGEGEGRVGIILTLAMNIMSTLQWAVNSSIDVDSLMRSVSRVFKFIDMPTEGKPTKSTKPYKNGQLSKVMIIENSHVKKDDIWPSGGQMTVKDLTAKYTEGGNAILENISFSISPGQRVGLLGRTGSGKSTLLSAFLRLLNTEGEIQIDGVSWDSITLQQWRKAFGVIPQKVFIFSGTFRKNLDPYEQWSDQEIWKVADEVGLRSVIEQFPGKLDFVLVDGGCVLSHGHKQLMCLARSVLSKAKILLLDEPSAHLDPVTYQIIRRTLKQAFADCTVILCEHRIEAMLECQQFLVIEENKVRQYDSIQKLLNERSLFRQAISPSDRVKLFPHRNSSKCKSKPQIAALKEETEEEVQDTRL
Test: F508del-CFTR cell surface expression (corrector activity), DiscoveRx ß-galactosidase complementation chemiluminescence assay in recombinant U2OS cell line;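 also: U2OS cells co-expressing ProLink-tagged F508del-CFTR and a membrane-anchored enzyme acceptor, where more surface CFTR restores β-galactosidase activity measured by chemiluminescence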
Settings: EC50, F508del-CFTR cell surface expression, U2OS cell line, 16h compound incubation; geomean values
hey, just use Y if measured EC50 is less than 300 nM, otherwise N

1. CC(C)C[C@H]1C(=O)N(CC[C@H]2CCCCO2)CC(=O)N[C@H](Cc2ccccc2)COc2ccc3ccccc3c2C(=O)N[C@H](C(=O)NCCc2ccc3c(c2)OCO3)CC(=O)N1C Y
2. CC(C)C[C@H]1C(=O)N2CCOC[C@@H]2C(=O)N[C@H](Cc2ccccc2)COc2cnc3ccccc3c2C(=O)N[C@H](C(=O)NCCc2cccc(-n3nccn3)c2)CC(=O)N1C N
3. COc1ccc2c(c1)C(=O)N[C@H](C(=O)NCCc1ccc3c(c1)OCO3)CC(=O)N(C)[C@@H](CC(C)C)C(=O)N(CCC1CCCCC1)CC(=O)N[C@H](Cc1ccccc1)CO2 Y
4. COc1cccc2c1C(=O)N[C@H](C(=O)NCCc1cncnc1)CC(=O)N(C)[C@@H](CC(C)C)C(=O)N(CCC1CCCCC1)CC(=O)N[C@H](Cc1ccccc1)CO2 N
